tested on: CEM cells HIV-1 protection, formazan growth assay; experiment: NCI AIDS Antiviral Assay;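 active means compounds giving half or more protection of infected cells from virus-caused growth loss, again on retest; inactive means the rest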
Hi there, use one of these labels in your reply, thanks! active, inactive

Use the examples below as a reference point.
# fetch the recorded call for CC(C)NC(=O)OCCN=C1c2ccccc2CCc2ccccc21 here
inactive

Entry COc1c(C)c(C/C=C(\C)CC/C=C(\C)CC/C=C(\C)CCC=C(C)C)c(OC)c(OC)c1OC please
inactive

Follow-up entry: Oc1ccc(N=C2CCC(=C(c3ccccc3)c3ccc(Nc4ccc(O)cc4)cc3)CC2)cc1
inactive

Then Cc1c(C2Cc3ccccc3N2)c2ccccc2n1C (centres undefined) ?
inactive

---
Hi team, can someone confirm the assay call for C1CN(SSN2CCSCC2)CCS1 ?
inactive

Same question for Sc1cc2c(c3ccccc13)Nc1ccccc1S2 please.
inactive
